Bliss excess overview
Tested on: NCI-H847 (Small Cell Lung Carcinoma);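 also: after 72 h of two-drug dosing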
Test: Bliss excess, mean over the matrix (fraction); higher = more synergy
In your answer, state the number alone without any accompanying words.

Answered cases to consult:
CN(C)CCCOc1ccc(-c2ccc3ncc4c(c3c2)n(C2CCOCC2)c(=O)n4C)cn1 [AZD0156] + C[C@@H]1COCCN1C2=NC(=NC(=C2)C3(CC3)[S@](=N)(=O)C)C4=C5C=CNC5=NC=C4 [AZD6738] (first compound max 1 µM, 7x7, partner max 10 µM) : -0.0116
CC1(C)CCC(CN2CCN(c3ccc(C(=O)NS(=O)(=O)c4ccc(NCC5CCOCC5)c([N+](=O)[O-])c4)c(Oc4cnc5[nH]ccc5c4)c3)CC2)=C(c2ccc(Cl)cc2)C1 [Venetoclax] + C1CN(CCC1(C(=O)N[C@@H](CCO)C2=CC=C(C=C2)Cl)N)C3=NC=NC4=C3C=CN4 [Capivasertib] (first compound max 1 µM, 7x7, partner max 3 µM) : 0.0062

Then this compound:
Data point: CN(C)CCCOc1ccc(-c2ccc3ncc4c(c3c2)n(C2CCOCC2)c(=O)n4C)cn1 [AZD0156] + O=C(c1cc(Cc2n[nH]c(=O)c3ccccc23)ccc1F)N1CCN(C(=O)C2CC2)CC1 [Olaparib] (first compound max 3 µM, partner max 3 µM) ; Bliss excess = 0.227

Reference source: the supplement of paper PMC11061612
